The following compounds are listed with their measured EC50 values.
# System: A/WSN/33 (H1N1)
# METHOD DESCRIPTION: Antiviral CPE assay in MDCK, other influenza strains
# Assay type: cell-based, influenza A virus (IAV)
# CONDITION: Influenza A virus, CPE method
QUANTITY: EC50 (nM)

COMPOUND	QUANTITY	OBSERVED
[2H]C([2H])([2H])OC(=O)OCOc1c2n(ccc1=O)N([C@@H]1c3ccccc3[Se]Cc3c1ccc(F)c3F)[C@@H]1COC3(CC3)CN1C2=O	EC50	1.02
COC(=O)OCOc1c2n(ccc1=O)N([C@@H]1c3ccccc3SCc3c1ccc(F)c3F)[C@@H]1COC3(CC3)CN1C2=O [Compound M42, reference compound]	EC50	2.28
O=C1c2c(OCOP(=O)(O)O)c(=O)ccn2N([C@@H]2c3ccccc3[Se]Cc3c2ccc(F)c3F)[C@@H]2COC3(CC3)CN12	EC50	1.13
[2H]C([2H])([2H])OC(=O)OCOc1c2n(ccc1=O)N([C@@H]1c3ccccc3SCc3c1ccc(F)c3F)[C@@H]1COC3(CC3)CN1C2=O	EC50	1.36
